Cited source for all entries: PubChem BioAssay AID1851

- assay_system: Cytochrome P450 2C19 (Homo sapiens) (UniProt P33261)
- Sequence (P33261 whole entry, looked up): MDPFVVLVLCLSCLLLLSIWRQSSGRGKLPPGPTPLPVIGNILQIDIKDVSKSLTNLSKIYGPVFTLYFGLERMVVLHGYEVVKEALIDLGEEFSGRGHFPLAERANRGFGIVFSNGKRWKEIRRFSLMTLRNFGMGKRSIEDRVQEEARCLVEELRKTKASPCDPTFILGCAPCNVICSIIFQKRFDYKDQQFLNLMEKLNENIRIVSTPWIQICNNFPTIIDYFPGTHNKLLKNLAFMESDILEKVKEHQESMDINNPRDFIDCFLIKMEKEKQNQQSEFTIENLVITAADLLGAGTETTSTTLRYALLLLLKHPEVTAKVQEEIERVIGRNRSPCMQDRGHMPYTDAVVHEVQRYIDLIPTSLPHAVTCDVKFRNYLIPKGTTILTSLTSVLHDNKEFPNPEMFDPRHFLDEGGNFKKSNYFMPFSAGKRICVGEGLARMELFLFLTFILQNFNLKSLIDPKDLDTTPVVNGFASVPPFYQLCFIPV
- method_notes: Cytochrome panel assay with activity outcomes
- measurement_conditions: recombinant CYP, pro-luciferin dealkylation, luminescence, p450-cyp2c19; series mostly up to 57.1 µM
In all, about 16,000 compounds went through this assay and about 5,800 (36%) were called active. Another 23% or so got no clear call; they are omitted. Calls come from the whole dose curve; as a rule, active = well fitted curve in the direction sought with a large enough effect; inconclusive = small, poorly fitted or top-dose-only effect, or effect the other way; inactive = no such curve, though single readings can be large or run the other way. The list shows a part of the results. Square brackets hold non-standard residues; d marks the D form. Peptide text beside a SMILES is read from it.
Use one of these outcomes when replying: 1 for active, -1 for inactive

What did this assay record as the result for "COc1ccc(N2CCN(C(=S)Nc3cc(C)cc(C)c3)CC2)cc1" ?
-1

What did this assay record as the result for "CCCCCCCCCCCCCCCCCCOC[C@@H](COP(=O)([O-])OCC[N+](C)(C)C)OC" ?
-1

What did this assay record as the result for "CS(=O)(=O)N1CCC[C@@]2(CCN(C(=O)Nc3ccccc3)C2)C1" ?
-1

What did this assay record as the result for CCOc1ccc(N2CC(C(=O)NCc3cccc(C)c3)CC2=O)cc1 (configuration not stated) ?
1

What did this assay record as the result for "CCS(=O)(=O)N1CCC[C@H]2CN3CCc4cc(OC)ccc4[C@@H]3C[C@@H]21" ?
-1

What did this assay record as the result for "CNC(=S)N1CCN(c2ccccc2OC)CC1" ?
1

What did this assay record as the result for CCCCC(C=O)NC(=O)C(CC(C)C)NC(=O)OCc1ccccc1 (configuration not stated) ?
1

What did this assay record as the result for "c1ccc(Nc2nc(-c3ccc4c(c3)OCO4)nc3ccccc23)cc1" ?
1

What did this assay record as the result for "O=C(Oc1ccccc1)N1CCC2(CCCN(c3ccc(-c4ccccc4)cc3)C2)CC1" ?
-1

What did this assay record as the result for "COc1ccc(NC(=S)Nc2ncccc2C)c(OC)c1" ?
1

What did this assay record as the result for "O=C(NC1CCCC1)c1cnn2c(C(F)(F)F)cc(-c3ccco3)nc12" ?
1

What did this assay record as the result for "COC(=O)N1CCC2(CCCN(c3ccccn3)C2)CC1" ?
1

What did this assay record as the result for "C=CC[C@@H]1C=C[C@H](Oc2ccc(C)cc2)[C@H](COC(=O)NCc2cccc3ccccc23)O1" ?
1

What did this assay record as the result for "Cn1c(=O)c(-c2ccc(Cl)cc2)nc2cnc(N3CCOCC3)nc21" ?
-1

What did this assay record as the result for "CSc1nc2ccccc2cc1/C=C(\C#N)c1cccc(C)c1" ?
1

What did this assay record as the result for "O=C(NCCCN1CCc2ccccc2C1)Nc1ccc(Cl)cc1" ?
1

What did this assay record as the result for "CSc1nc2ccccc2cc1/C=C(\C#N)c1ccccc1" ?
1

What did this assay record as the result for "CN1CCc2cc(Cl)c(O)cc2[C@@H](c2ccccc2)C1" ?
-1

What did this assay record as the result for "COc1ccccc1NC(=O)c1nc[nH]c1C(=O)Nc1ccccc1OC" ?
-1

What did this assay record as the result for "CCC(=O)Nc1cc(-c2nn(C)c(=O)c3ccccc23)ccc1N1CCCCC1" ?
1

What did this assay record as the result for "COc1ccc(N2CCN(C(=S)Nc3cc(C)ccc3C)CC2)cc1" ?
1

What did this assay record as the result for CSCC[C@H](C=O)NC(=O)[C@H](CC(C)C)NC(=O)[C@H](CC(C)C)NC(C)=O (Ac-Leu-Leu-[dM]-aldehyde) ?
-1
